Target: T1, Human respiratory syncytial virus (HRSV) M2-1 protein, full-length native tetramer (human respiratory syncytial virus, …, UniProt P04545 1-194)
T1 construct: HRSV M2-1 protein, strain A2, M2-1 ORF; 194 amino acids; Also used here as the wild-type M2-1 of the minigenome rows, where it was expressed from a plasmid in BSRT7 cells; also called native M2-1; tetrameric M2-1; source: E. coli BL21(DE3) Gold, purified (glutathione Sepharose, on-column PreScission cleavage, SP Sepharose; Superdex 75 for crystallization); not shown: GST, N-terminal, cleaved
T1 sequence: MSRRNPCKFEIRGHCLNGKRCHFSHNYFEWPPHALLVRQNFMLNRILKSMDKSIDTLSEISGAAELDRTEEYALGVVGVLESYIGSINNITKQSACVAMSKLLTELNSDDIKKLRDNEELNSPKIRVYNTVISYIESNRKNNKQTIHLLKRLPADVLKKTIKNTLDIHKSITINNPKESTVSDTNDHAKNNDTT
Assay: fluorescence polarisation; fluorescence anisotropy, direct binding; 10 nM fluorescein-labeled P90-110, M2-1 0.1 nM to 300 μM; 20 mM Tris-Cl pH 7.5, 150 mM NaCl, 0.01% Triton X-100; 30 min at room temperature; 384-well; triplicate; apparent
Conditions: both partners purified
Where no end group is shown, it is not given here. fluorescein = fluorescein label at the peptide N-terminus
reported.property: pKd
Just so you know, pKd here is -log10 of the concentration in molar units; reply with that number alone.

Data point: fluorescein-DPTPSDNPFSKLYKETIETFD (peptide, UniProt P03421 90-110, looked up, HRSV phosphoprotein P, residues 90-110; Strain A2 is stated for the unlabeled peptide; source: synthetic peptide (ProteoGenix)) [Fluorescein-labeled P90-110 peptide] ; pKd = 5.12
